Molecular target: soybean lipoxygenase (LOX) (Glycine max, UniProt P08170)
Sequence (P08170 1-839): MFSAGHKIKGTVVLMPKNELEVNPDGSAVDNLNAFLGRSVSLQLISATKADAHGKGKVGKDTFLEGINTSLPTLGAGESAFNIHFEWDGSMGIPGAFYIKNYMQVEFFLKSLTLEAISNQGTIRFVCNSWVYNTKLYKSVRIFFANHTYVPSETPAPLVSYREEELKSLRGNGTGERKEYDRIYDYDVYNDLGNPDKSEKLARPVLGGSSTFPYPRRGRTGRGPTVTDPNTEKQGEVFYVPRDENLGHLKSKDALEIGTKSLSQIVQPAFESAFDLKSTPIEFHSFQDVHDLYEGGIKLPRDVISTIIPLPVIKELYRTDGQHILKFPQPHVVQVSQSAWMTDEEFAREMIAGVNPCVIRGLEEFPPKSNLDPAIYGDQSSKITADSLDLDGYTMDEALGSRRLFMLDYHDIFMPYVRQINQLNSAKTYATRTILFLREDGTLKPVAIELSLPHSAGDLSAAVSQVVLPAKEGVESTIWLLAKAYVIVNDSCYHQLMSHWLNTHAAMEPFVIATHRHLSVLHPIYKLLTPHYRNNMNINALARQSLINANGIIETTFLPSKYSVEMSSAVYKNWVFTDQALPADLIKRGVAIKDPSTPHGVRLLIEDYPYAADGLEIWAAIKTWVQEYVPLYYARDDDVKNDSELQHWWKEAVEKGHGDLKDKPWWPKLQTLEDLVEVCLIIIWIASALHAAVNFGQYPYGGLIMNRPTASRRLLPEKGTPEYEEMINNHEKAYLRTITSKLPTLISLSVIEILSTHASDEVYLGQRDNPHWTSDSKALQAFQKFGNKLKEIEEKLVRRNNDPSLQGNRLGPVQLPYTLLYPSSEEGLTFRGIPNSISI
READOUT LABEL: IC50 (µM)
Just the number please, in µM, no unit attached.

COc1ccc2c(c1)/C(=N/NC(=S)Nc1ccccc1)C(=O)N2; 60.5

Challenge: Give the measured IC50 of O=C1C(=NNC(=S)Nc2ccccc2)c2cc(F)ccc2N1CN1CCCCC1 .
Response given: 54
